Answer each item with its documented CC50.
assay: NOVARTIS: Cytotoxicity against human hepatocellular carcinoma cell line (Huh7); format: toxicity, cell-based, Huh-7; conditions: Huh7 cells (hepatocellular carcinoma cell line)

# example entries with known answers
* CC[n+]1c(C=Cc2ccc(Cl)cc2)ccc2ccccc21 | 19.5 µM
* NCCC(=O)N1CC(c2ccccc2)c2ccccc2C1CN1CCCCC1 (stereo not drawn) | 8.52 µM

Each compound below has a recorded value; state its CC50.
1. CCN(CC)CCNc1nc(/C=C/c2ccc(Cl)cc2)nc2cc3ccccc3cc12
2. COCCOC(=O)C1=C(C)NC2=C(C(=O)CC(c3ccc(OC)c(OC)c3)C2)C1c1ccccc1C (stereo not drawn)
3. COc1ccc(C2C(C(=O)OC3CCCCC3)=C(C)Nc3nnnn32)cc1 (stereo not drawn)
4. COc1cc(CN2CC3CC(C2)c2cccc(=O)n2C3)ccc1O (stereo not drawn)
5. O=[N+]([O-])c1ccc(NN=Cc2cccs2)c(S(=O)(=O)N2CCCCCC2)c1

Ans:
1. 5.93 µM
2. > 100 µM
3. > 74.1 µM
4. > 100 µM
5. > 10 µM

State recorded CC50 for all listed compounds.
1. Oc1ccccc1-c1nc2ncccn2c1Nc1cccc(C(F)(F)F)c1
2. CC(=NNC(=O)c1ccc(C)cc1)c1ccccn1
3. Cc1c(C(=O)NCCN2CCCC2)cnn1-c1ncc2c(n1)-c1ccccc1SC2

Ans:
["> 100 µM", "> 100 µM", "> 10 µM"]

Numbers sourced from ChEMBL document CHEMBL1156829.
